We begin with a simple list: items and their reported kon.
# ASSAY SYSTEM: T1, human IL-13 variant (R130Q) (human, UniProt P35225 35-146)
# T1 construct: called R110Q in the assay descriptions (mature numbering); also called h IL-13v; hIL-13v
# T1 sequence (P35225 35-146 limits assumed, stated change not applied): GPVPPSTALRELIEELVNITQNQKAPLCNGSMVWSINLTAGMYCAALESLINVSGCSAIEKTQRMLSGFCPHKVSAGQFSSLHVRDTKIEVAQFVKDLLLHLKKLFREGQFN
# ASSAY DETAILS: SPR (Biacore), mAb captured, IL-13 as analyte
Reply with just the number (in M⁻¹ s⁻¹).

BINDER: 29G5 (antibody, V domains shown) VH: QVTLKESGPGILQPSQTLSLTCSFSGFSLSTSDMGVDWIRQPSGKDLEWLAHIWWDDVKRYNPALKSRLTISKDTSSSQVFLMLASVDTADTATYYCARIVSSGYIYYALDYWGQGTSVTVSS VL: DIQMTQTASSLSASLGDRVTISCRASQDIRNYLNWYQRKPDGTVKLLIYYTSRLHSGVPSRFSGSGSGTDYSLTISNLEQEDIATYFCQQGNTLPLTFGGGTKLEIKR
kon / M⁻¹ s⁻¹: 316000

Pending binder:
Task: Using the record for 22D10 (antibody, V domains shown) VH: QVQLQQSGDDLVKPGASVKLSCKASGYTFTSYWINWIKQRPGQGLEWIGHIAPGSGETYDNEMFKDKAKLTVDTSSSTAYIHLSSLSSEDSAVYFCARGSFTFFYAMDYWGQGTSVTVSS VL: DVLMTQTPLSLPVSLGDQASISCRSSQNIVHSNGKTYLEWYLQRPGQSPKLLIYKVSNRFSGVPDRFSGSGSGTDFTLKISRVEAEDLGVYYCFQGSHVPYTFGGGTKLEIKR , report its kon.
Result: 245000
